Tested on: L1210 leukemia ip in BDF1 mice, survival T/C
method-summary: NCI In Vivo Anticancer Drug Screen. Data for tumor model L1210 Leukemia (intraperitoneal) in B6D2F1 (BDF1) mice
measurement-setup: endpoint: mean survival time; dose: 200.0 mg/kg/injection; schedule: Q04DX003 (ip); vehicle: other; higher = longer survival
Inconclusive results and toxic doses are left out.
Exercise: state measured T/C for each of the compounds provided.

Examples with their reported T/C follow.
compound: Nc1ccccc1N=Cc1cc(F)ccc1[N+](=O)[O-]
T/C: 102 % of control
//
compound: CCCCCCCCCCC(=O)NC1CCC(CC2CCCCC2)CC1 (stereo not drawn)
T/C: 103 % of control
//
compound: Cc1nc(N)nc(C)c1N=Nc1ccc(Br)cc1
T/C: 102 % of control

List T/C for every entry below, keeping the order given.
1. CCCCCCCCCCCCCCCC/C(C)=C\C(=O)OC
2. CC(/C=N/NC(=O)NO)=N\NC(=O)NO
3. Nc1ccccc1-n1cccc1
4. CCCCCCN(CCCCCC)C(C)=O
5. S=c1[nH]c2ccccc2o1

93 % of control
102 % of control
113 % of control
93 % of control
93 % of control

====

Exercise: state measured T/C for each of the compounds provided.
Test system: L1210 leukemia ip in BDF1 mice, survival T/C
method-summary: NCI In Vivo Anticancer Drug Screen. Data for tumor model L1210 Leukemia (intraperitoneal) in B6D2F1 (BDF1) mice
measurement-setup: endpoint: mean survival time; dose: 100.0 mg/kg/injection; schedule: Q01DX001 (ip); vehicle: acetone; higher = longer survival
Toxic doses and inconclusive results are not listed.

compound: Cc1cc(C)c(CC(=N)c2ccccc2)c(C)c1
reported-metric: T/C
experimental-result: 96 % of control

compound: c1ccc2c(c1)ccc1ccc[s+]c12
reported-metric: T/C
experimental-result: 103 % of control

compound: CCCC(CCC)OC(=O)C(O)c1ccccc1 (centres undefined)
reported-metric: T/C
experimental-result: 94 % of control

Value wanted: T/C (L1210 leukemia ip in BDF1 mice, survival T/C) of entry `CCC/C(C)=N/Nc1ccccn1` 98 % of control

====

Exercise: state measured T/C for each of the molecules provided.
Tested on: L1210 leukemia ip in BDF1 mice, survival T/C
method-summary: NCI In Vivo Anticancer Drug Screen. Data for tumor model L1210 Leukemia (intraperitoneal) in B6D2F1 (BDF1) mice
measurement-setup: endpoint: mean survival time; dose: 200.0 mg/kg/injection; schedule: Q04DX003 (ip); vehicle: saline; higher = longer survival
Toxic doses and inconclusive results are not listed.

List T/C for every entry below, keeping the order given.
1. CC1=C/C(=N\N2CCOCC2)C(C(O)(C(F)(F)F)C(F)(F)F)C(C)(C)C1 (stereo not drawn)
2. O=C(O)CN1C(=O)C2C3CCC(O3)C2C1=O (stereo not drawn)
3. c1cc(C2OCCO2)ccn1
4. COc1cc2cc(-c3cc(OC)c(OC)c(OC)c3)c3c(c2cc1OC)CNC3=O
5. O=C(O)C1CCCCC1C(=O)O (stereo not drawn)
6. Cc1c(NC(=O)Nc2ccccc2F)c(=O)n(-c2ccccc2)n1C
7. O/N=C/C=N/O.O/N=C/C=N/O.[Cl][Rh][Cl]
8. N=C(N)c1ccncc1

1: 98 % of control; 2: 98 % of control; 3: 100 % of control; 4: 101 % of control; 5: 98 % of control; 6: 91 % of control; 7: 102 % of control; 8: 104 % of control

List T/C for every entry below, keeping the order given.
1. CC1(C)COC(CC2CCCCC2)=N1
2. CCN1c2c(nc(N)[nH]c2=O)NCC1CNc1ccc(C(=O)NC(CCC(=O)O)C(=O)O)cc1 (stereo not drawn)
3. CC1(C(=O)O)C2CCC(C2)C1C(=O)O (stereo not drawn)
4. BrC#CC1=CCCCC1

86 % of control
104 % of control
102 % of control
103 % of control

List T/C for every entry below, keeping the order given.
1. Fc1ccc2[nH]c3c(c2c1)C[P+](Cc1cccc2ccccc12)(c1ccccc1)CC3 (stereo not drawn)
2. COc1ccc(CCN=C(c2ccccc2)c2ccccc2)cc1OC
3. Cc1ccc(S(=O)(=O)Nc2ccccc2-c2nc3c(Cl)ccc(Cl)c3c(=O)o2)cc1
4. O=C1CSC(=S)N1c1ccco1
5. CCC(NC(=O)CN)C(=O)O (stereo not drawn)
6. c1ccc2c(c1)CC(=[N+]1CCCCC1)Cc1ccccc1-2
7. OCC1OC(Oc2ccccc2)C(O)C(O)C1O (stereo not drawn)

["88 % of control", "94 % of control", "93 % of control", "88 % of control", "94 % of control", "89 % of control", "105 % of control"]

List T/C for every entry below, keeping the order given.
1. C[n+]1ccc(/C(N)=N/O)cc1
2. O=C1OC(=O)C2C1C1(Cl)C(Cl)=C(Cl)C2(Cl)C2C(=O)OC(=O)C21 (stereo not drawn)

1: 97 % of control; 2: 95 % of control

List T/C for every entry below, keeping the order given.
1. COc1cc(C(=O)Nc2ccc(N(C)C)cc2)cc(OC)c1OC
2. CCN(CC)CC(N)=O

103 % of control
103 % of control
